Molecular target: high-affinity DFP binding site
Design: species or system rat
Conditions: read-out: IC50, inhibition of binding of [3H]DFP to the high-affinity binding site
readout.kind: IC50 (nM)
Give bare numbers, in nM.

Fill blank: measured IC50 of the molecule CCCc1c(CC)c(=O)on1C(=O)N1CCCC1 is ____.
4.8

* * *

Target: UniProtKB P37136
Sequence (P37136 32-614): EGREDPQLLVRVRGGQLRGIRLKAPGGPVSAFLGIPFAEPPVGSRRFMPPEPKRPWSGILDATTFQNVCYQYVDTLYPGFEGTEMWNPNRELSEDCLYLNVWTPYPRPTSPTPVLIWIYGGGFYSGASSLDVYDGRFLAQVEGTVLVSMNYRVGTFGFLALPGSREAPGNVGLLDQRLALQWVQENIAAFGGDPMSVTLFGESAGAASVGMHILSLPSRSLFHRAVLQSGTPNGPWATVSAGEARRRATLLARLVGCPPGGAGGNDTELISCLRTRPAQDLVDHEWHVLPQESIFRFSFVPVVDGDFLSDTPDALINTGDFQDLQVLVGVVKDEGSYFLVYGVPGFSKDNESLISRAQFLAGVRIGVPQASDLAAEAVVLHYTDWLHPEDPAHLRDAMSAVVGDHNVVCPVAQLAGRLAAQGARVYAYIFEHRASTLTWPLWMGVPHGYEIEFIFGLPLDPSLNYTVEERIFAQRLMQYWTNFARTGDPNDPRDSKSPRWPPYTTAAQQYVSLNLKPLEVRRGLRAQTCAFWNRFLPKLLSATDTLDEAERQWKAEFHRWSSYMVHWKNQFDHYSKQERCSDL
readout.kind: Ki

Fill blank: measured Ki of the molecule CCCc1c(CC)c(=O)on1C(=O)N1CCCC1 is ____.
> 10 µM
